Origin of values: patent US7071168B2

Biological target: cloned human bradykinin B2 receptors (Homo sapiens, UniProt P30411)
Sequence (P30411 whole entry): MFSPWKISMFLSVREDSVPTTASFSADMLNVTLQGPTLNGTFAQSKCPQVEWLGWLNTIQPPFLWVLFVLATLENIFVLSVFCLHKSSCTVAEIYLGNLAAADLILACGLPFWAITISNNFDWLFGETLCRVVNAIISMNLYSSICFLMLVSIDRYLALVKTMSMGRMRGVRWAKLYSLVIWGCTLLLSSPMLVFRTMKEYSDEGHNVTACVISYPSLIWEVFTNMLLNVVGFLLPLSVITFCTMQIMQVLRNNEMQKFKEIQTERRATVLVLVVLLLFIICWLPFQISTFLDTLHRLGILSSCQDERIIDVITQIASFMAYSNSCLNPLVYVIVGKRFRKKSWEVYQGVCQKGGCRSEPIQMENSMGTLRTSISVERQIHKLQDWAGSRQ
Assay: Anti-bradykinin activity on cloned human B2 receptors (CHO cells, Cytosensor microphysiometer)
Type: cell-based
Details: cloned human B2 receptors; pD2 for bradykinin is 11; higher numbers indicate higher potency
Result Type: HUMAN: pA2 for bradykinin antagonist potency on cloned human B2 receptors

Molecule: CN(C)c1cccc2c(S(=O)(=O)NC(Cc3ccc(OCc4ccccc4)cc3)C(=O)NC3CC(C)(C)NC(C)(C)C3)cccc12 (stereo not shown)
System Tested: cloned human bradykinin B2 receptors (Homo sapiens, UniProt P30411)
Result: Inact

Molecule: Cc1ccc(CSCC(NC(=O)C=Cc2c(F)c(F)c(F)c(F)c2F)C(=O)NC2CC(C)(C)NC(C)(C)C2)cc1 (stereo not shown)
System Tested: cloned human bradykinin B2 receptors (Homo sapiens, UniProt P30411)
Result: Inact

Molecule: CN(C)c1ccc(C=CC(=O)NC(Cc2ccc3ccccc3c2)C(=O)N2CCSCC2)cc1 (stereo not shown)
System Tested: cloned human bradykinin B2 receptors (Homo sapiens, UniProt P30411)
Result: Inact

Molecule: CC1(C)CC(NC(=O)C(Cc2csc3ccccc23)NC(=O)C=Cc2c(F)c(F)c(F)c(F)c2F)CC(C)(C)N1 (stereo not shown)
System Tested: cloned human bradykinin B2 receptors (Homo sapiens, UniProt P30411)
Result: 10.3

Molecule: CC1(C)CC(NC(=O)[C@H](CC(=O)O)NC(=O)[C@H](Cc2ccc3ccccc3c2)NC(=O)CCCCCCCCCCC(=O)N[C@@H](Cc2ccc3ccccc3c2)C(=O)N[C@@H](CC(=O)O)C(=O)NC2CC(C)(C)NC(C)(C)C2)CC(C)(C)N1
System Tested: cloned human bradykinin B2 receptors (Homo sapiens, UniProt P30411)
Result: 10

Molecule: CC1(C)CC(NC(=O)C(NC(=O)C=Cc2ccc(NC(=O)CCCCCCCCCCC(=O)Nc3ccc(C=CC(=O)NC(C(=O)NC4CC(C)(C)NC(C)(C)C4)C4Cc5ccccc5C4)cc3)cc2)C2Cc3ccccc3C2)CC(C)(C)N1 (stereo not shown)
System Tested: cloned human bradykinin B2 receptors (Homo sapiens, UniProt P30411)
Result: 10.3

Please turn your attention to the following entry.
Incoming: Which measured HUMAN: pA2 for bradykinin antagonist potency on cloned human B2 receptors belongs to O=C(C=Cc1ccc(NC(=O)CCCCCCCCCCC(=O)Nc2ccc(C=CC(=O)NC(Cc3ccc4ccccc4c3)C(=O)NC3CCNCC3)cc2)cc1)NC(Cc1ccc2ccccc2c1)C(=O)NC1CCNCC1 (stereo not shown) , tested on cloned human bradykinin B2 receptors (Homo sapiens, UniProt P30411)?
Outgoing: 10
